The values you see were collected from patent US20260116991A1.

target: monkey GPC3-His protein (monkey); assay: ELISA, monkey GPC3-His coated; antibody 0.0008 nM
Form field: OD450 nm (one value per entry).
Number only, please.

- BINDER: "hAb003LH3L1a (antibody, human IgG1, V domains shown) VH: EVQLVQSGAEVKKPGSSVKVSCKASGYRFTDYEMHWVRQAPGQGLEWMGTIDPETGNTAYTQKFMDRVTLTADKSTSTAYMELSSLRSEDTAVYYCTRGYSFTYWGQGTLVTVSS VL: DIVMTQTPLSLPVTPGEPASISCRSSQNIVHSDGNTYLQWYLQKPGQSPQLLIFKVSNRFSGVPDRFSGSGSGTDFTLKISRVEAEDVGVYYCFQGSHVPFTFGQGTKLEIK"
  OD450 nm: 0.089
- BINDER: "hAb006LH2L1a (antibody, human IgG1, V domains shown) VH: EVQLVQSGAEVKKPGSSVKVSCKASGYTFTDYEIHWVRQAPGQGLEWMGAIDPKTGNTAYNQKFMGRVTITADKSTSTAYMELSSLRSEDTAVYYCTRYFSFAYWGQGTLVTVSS VL: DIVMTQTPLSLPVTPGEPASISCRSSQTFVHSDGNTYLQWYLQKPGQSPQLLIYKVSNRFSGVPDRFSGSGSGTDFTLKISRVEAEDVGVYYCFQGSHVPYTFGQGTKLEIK"
  OD450 nm: 0.047
- BINDER: "hAb003LH1L1a (antibody, human IgG1, V domains shown) VH: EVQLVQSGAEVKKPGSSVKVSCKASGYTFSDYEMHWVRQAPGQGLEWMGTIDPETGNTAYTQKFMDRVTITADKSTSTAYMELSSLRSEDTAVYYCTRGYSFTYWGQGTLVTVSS VL: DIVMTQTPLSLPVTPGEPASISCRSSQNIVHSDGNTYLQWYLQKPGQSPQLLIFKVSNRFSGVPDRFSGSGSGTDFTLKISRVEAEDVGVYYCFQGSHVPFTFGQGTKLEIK"
  OD450 nm: 0.087
- BINDER: "hAb005LH2L1a (antibody, human IgG1, V domains shown) VH: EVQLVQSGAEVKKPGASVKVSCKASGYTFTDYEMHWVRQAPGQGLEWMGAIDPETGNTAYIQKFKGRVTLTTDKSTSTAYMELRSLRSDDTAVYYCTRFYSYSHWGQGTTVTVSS VL: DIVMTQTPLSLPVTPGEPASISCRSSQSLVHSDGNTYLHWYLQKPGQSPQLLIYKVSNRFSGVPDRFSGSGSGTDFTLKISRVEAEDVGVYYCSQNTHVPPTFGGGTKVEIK"
  OD450 nm: 0.099

Incoming: OD450 nm lookup needed for hAb007LH3L1a (antibody, human IgG1, V domains shown) VH: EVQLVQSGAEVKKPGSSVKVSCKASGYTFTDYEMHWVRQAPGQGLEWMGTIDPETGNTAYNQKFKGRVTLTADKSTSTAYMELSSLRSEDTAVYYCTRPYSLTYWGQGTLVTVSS VL: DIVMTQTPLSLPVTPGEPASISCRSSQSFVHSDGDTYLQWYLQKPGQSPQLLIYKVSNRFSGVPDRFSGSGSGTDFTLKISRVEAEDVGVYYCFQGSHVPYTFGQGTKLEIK , thanks.
Outgoing: 0.069
